So I've got a bunch of molecules here, and I need their Emax values.
# Test system: FD (familial dysautomonia) IKBKAP minigene, exon 20 inclusion, in HEK293T cells
# Protocol Notes: Primary splicing assay (FD IKBKAP minigene, Firefly/Renilla luciferase reporter in HEK293T)
# Assay type: cell-based, human
# Run Conditions: Homo sapiens, HEK-293T; max efficacy in Primary Assay; Firefly/Renilla ratio, kinetin and DMSO as positive and negative controls; 24 hours of treatment; read-out: Emax (%)
Give the quantity in %, number only.

Bench note, FD (familial dysautomonia) IKBKAP minigene, exon 20 inclusion, in HEK293T cells: Clc1nc(NCc2cscn2)c2nc[nH]c2n1 , Emax reads 63.4

Bench note, FD (familial dysautomonia) IKBKAP minigene, exon 20 inclusion, in HEK293T cells: O=C(O)c1ccc(CNc2nc(Cl)nc3[nH]cc(F)c23)cc1 , Emax reads 23

Bench note, FD (familial dysautomonia) IKBKAP minigene, exon 20 inclusion, in HEK293T cells: Fc1cnccc1CNc1nc(Cl)nc2[nH]cnc12 , Emax reads 163

Bench note, FD (familial dysautomonia) IKBKAP minigene, exon 20 inclusion, in HEK293T cells: Clc1cc(NCc2ccncn2)n2ncnc2n1 , Emax reads 38

Bench note, FD (familial dysautomonia) IKBKAP minigene, exon 20 inclusion, in HEK293T cells: Clc1nc(NCc2ccncc2)c2nc(C3CC3)[nH]c2n1 , Emax reads 103

Bench note, FD (familial dysautomonia) IKBKAP minigene, exon 20 inclusion, in HEK293T cells: CNc1nc2c(NCc3ccncn3)nc(Cl)nc2[nH]1 , Emax reads 215

Bench note, FD (familial dysautomonia) IKBKAP minigene, exon 20 inclusion, in HEK293T cells: Clc1nc(NCc2ccco2)c2cn[nH]c2n1 , Emax reads 96

Bench note, FD (familial dysautomonia) IKBKAP minigene, exon 20 inclusion, in HEK293T cells: CN(C)C(=O)c1cc2c(NCc3ccco3)nc(Cl)nc2[nH]1 , Emax reads 81

Bench note, FD (familial dysautomonia) IKBKAP minigene, exon 20 inclusion, in HEK293T cells: CCCOc1nc2c(NCc3cscn3)nc(Cl)nc2[nH]1 , Emax reads 211

Bench note, FD (familial dysautomonia) IKBKAP minigene, exon 20 inclusion, in HEK293T cells: NC(=O)c1nc2c(NCc3ccco3)nc(Cl)nc2[nH]1 , Emax reads 64

Bench note, FD (familial dysautomonia) IKBKAP minigene, exon 20 inclusion, in HEK293T cells: Cc1c[nH]c2nc(Cl)nc(NCc3ccncc3)c12 , Emax reads 166

###

# Tested on: FD (familial dysautomonia) IKBKAP minigene, exon 20 inclusion, in HEK293T cells
# Protocol Notes: Primary splicing assay (FD IKBKAP minigene, Firefly/Renilla luciferase reporter in HEK293T)
# Assay type: cell-based, human
# Run Conditions: Homo sapiens, HEK-293T; max efficacy in Primary Assay; Firefly/Renilla ratio, kinetin and DMSO as positive and negative controls; 24 hours of treatment; read-out: Emax (%)
Define the label as Fulfilled when Emax is strictly less than 90% and as Not fulfilled in all remaining cases.

Query: Lab note: confirm whether the reported Emax for this compound is below 90%, equality not counting. compound: O=C(O)COc1nc2c(NCc3nccs3)nc(Cl)nc2[nH]1
Result: Fulfilled

Query: Lab note: confirm whether the reported Emax for this compound is below 90%, equality not counting. compound: Clc1nc(NCc2nccs2)c2nc(OCC3CCO3)[nH]c2n1 (stereo not shown)
Result: Not fulfilled

Query: Lab note: confirm whether the reported Emax for this compound is below 90%, equality not counting. compound: Clc1nc(NCc2ccno2)c2cc[nH]c2n1
Result: Fulfilled

Query: Lab note: confirm whether the reported Emax for this compound is below 90%, equality not counting. compound: CNC(=O)c1c[nH]c2nc(Cl)nc(NCc3ccco3)c12
Result: Fulfilled

Query: Lab note: confirm whether the reported Emax for this compound is below 90%, equality not counting. compound: O=C(c1c[nH]c2nc(Cl)nc(NCc3ccco3)c12)N1CCCC1
Result: Fulfilled

Query: Lab note: confirm whether the reported Emax for this compound is below 90%, equality not counting. compound: CCCOc1nc2c(NCc3ccco3)nc(Cl)nc2n1CCO
Result: Not fulfilled

Query: Lab note: confirm whether the reported Emax for this compound is below 90%, equality not counting. compound: CNC(=O)Cn1ccc2c(NCc3ccco3)nc(Cl)nc21
Result: Fulfilled

Query: Lab note: confirm whether the reported Emax for this compound is below 90%, equality not counting. compound: Clc1nc(NCc2ccncn2)c2nc(OC3COC3)[nH]c2n1
Result: Not fulfilled

Query: Lab note: confirm whether the reported Emax for this compound is below 90%, equality not counting. compound: Clc1nc(NCc2ccco2)c2nc(-c3cccnc3)[nH]c2n1
Result: Fulfilled

Query: Lab note: confirm whether the reported Emax for this compound is below 90%, equality not counting. compound: Fc1c[nH]c2nc(Cl)nc(NCc3nccs3)c12
Result: Not fulfilled

Query: Lab note: confirm whether the reported Emax for this compound is below 90%, equality not counting. compound: CNOc1nc2c(NCc3ccco3)nc(Cl)nc2[nH]1
Result: Fulfilled

Query: Lab note: confirm whether the reported Emax for this compound is below 90%, equality not counting. compound: FC(F)COc1nc2c(NCc3cscn3)nc(Cl)nc2[nH]1
Result: Not fulfilled

Query: Lab note: confirm whether the reported Emax for this compound is below 90%, equality not counting. compound: Cn1c(=O)[nH]c2nc(Cl)nc(NCc3nccs3)c21
Result: Fulfilled

Query: Lab note: confirm whether the reported Emax for this compound is below 90%, equality not counting. compound: Cc1cccc(CNc2ncnc3[nH]cnc23)c1
Result: Fulfilled

Query: Lab note: confirm whether the reported Emax for this compound is below 90%, equality not counting. compound: OC1CN(c2nc3c(NCc4ccco4)nc(Cl)nc3[nH]2)C1
Result: Not fulfilled

Query: Lab note: confirm whether the reported Emax for this compound is below 90%, equality not counting. compound: Clc1nc(NCc2ccncc2)c2ncsc2n1
Result: Not fulfilled

Query: Lab note: confirm whether the reported Emax for this compound is below 90%, equality not counting. compound: Clc1nc(NCc2ccncc2)c2nc(OC3CCC3)[nH]c2n1
Result: Not fulfilled

Query: Lab note: confirm whether the reported Emax for this compound is below 90%, equality not counting. compound: OCCNc1nc2c(NCc3ccco3)nc(Cl)nc2[nH]1
Result: Fulfilled

Query: Lab note: confirm whether the reported Emax for this compound is below 90%, equality not counting. compound: OCCn1cc(F)c2c(NCc3ccncn3)nc(Cl)nc21
Result: Not fulfilled

Query: Lab note: confirm whether the reported Emax for this compound is below 90%, equality not counting. compound: Clc1nc(NCc2nccs2)c2nc(OCC3CCCC3)[nH]c2n1
Result: Not fulfilled

Query: Lab note: confirm whether the reported Emax for this compound is below 90%, equality not counting. compound: Clc1nc(NCc2ccncc2)c2nc(C3CCC3)[nH]c2n1
Result: Not fulfilled

Query: Lab note: confirm whether the reported Emax for this compound is below 90%, equality not counting. compound: OCCn1cnc2c(NCc3ccco3)nc(Cl)nc21
Result: Not fulfilled

###

# Test system: FD (familial dysautomonia) IKBKAP minigene, exon 20 inclusion, in HEK293T cells
# Protocol Notes: Primary splicing assay (FD IKBKAP minigene, Firefly/Renilla luciferase reporter in HEK293T)
# Format: cell-based, human
# Run Conditions: Homo sapiens, HEK-293T; max efficacy in Primary Assay; Firefly/Renilla ratio, kinetin and DMSO as positive and negative controls; 24 hours of treatment; read-out: Emax (%)
Metric Name: Emax
Answer format: value, then unit.

get_value(item= FC(F)(F)c1ccc(CCNc2ncnc3[nH]cnc23)cc1 , readout=Emax) returns 66%

get_value(item= OCCn1cc(Cl)c2c(NCc3ccco3)nc(Cl)nc21 , readout=Emax) returns 204%

get_value(item= Clc1cc(NCc2ccncc2)c2nc[nH]c2n1 , readout=Emax) returns 258%

get_value(item= FC(F)(F)c1cccc(CNc2ncnc3[nH]cnc23)c1 , readout=Emax) returns 21%

get_value(item= Fc1nc(NCc2nccs2)c2nc[nH]c2n1 , readout=Emax) returns 94%

get_value(item= Clc1nc(NCc2nccs2)c2nc(OCc3ccccc3)[nH]c2n1 , readout=Emax) returns 138%

get_value(item= Clc1nc(NCc2ccncc2Cl)c2cc[nH]c2n1 , readout=Emax) returns 152%

get_value(item= CC(C)(C)OC(=O)N1Cc2nc(Cl)nc(NCc3nccs3)c2C1 , readout=Emax) returns 40.8%

get_value(item= OCCn1ccc2c(NCc3nccs3)nc(Cl)nc21 , readout=Emax) returns 214%

get_value(item= Clc1cc(NCc2ccncn2)n2nccc2n1 , readout=Emax) returns 20%

get_value(item= Cc1[nH]c2nc(Cl)nc(NCc3ccncn3)c2c1F , readout=Emax) returns 27%

###

# System: FD (familial dysautomonia) IKBKAP minigene, exon 20 inclusion, in HEK293T cells
# Protocol Notes: Primary splicing assay (FD IKBKAP minigene, Firefly/Renilla luciferase reporter in HEK293T)
# Type: cell-based, human
# Run Conditions: Homo sapiens, HEK-293T; max efficacy in Primary Assay; Firefly/Renilla ratio, kinetin and DMSO as positive and negative controls; 24 hours of treatment; read-out: Emax (%)
# Procedure: As used herein, the expression “ECk” refers to the compound concentration at which the maximum kinetin efficacy (200 μM) is reached. […]
Metric Name: Emax (%)
Give the quantity in %, number only.

Bench note, FD (familial dysautomonia) IKBKAP minigene, exon 20 inclusion, in HEK293T cells: CC#CCOc1nc2c(NCc3ccco3)nc(Cl)nc2[nH]1 , Emax reads 150

Bench note, FD (familial dysautomonia) IKBKAP minigene, exon 20 inclusion, in HEK293T cells: FC(F)COc1nc2c(NCc3nccs3)nc(Cl)nc2[nH]1 , Emax reads 186

Bench note, FD (familial dysautomonia) IKBKAP minigene, exon 20 inclusion, in HEK293T cells: CN(C)C(=O)Cn1ccc2c(NCc3ccco3)nc(Cl)nc21 , Emax reads 20

Bench note, FD (familial dysautomonia) IKBKAP minigene, exon 20 inclusion, in HEK293T cells: CNC(=O)c1nc2c(NCc3ccncn3)nc(Cl)nc2[nH]1 , Emax reads 165

Bench note, FD (familial dysautomonia) IKBKAP minigene, exon 20 inclusion, in HEK293T cells: CC(=O)NCCOc1nc2c(NCc3nccs3)nc(Cl)nc2[nH]1 , Emax reads 26.3

Bench note, FD (familial dysautomonia) IKBKAP minigene, exon 20 inclusion, in HEK293T cells: COc1nc2c(NCc3cscn3)nc(Cl)nc2[nH]1 , Emax reads 134

Bench note, FD (familial dysautomonia) IKBKAP minigene, exon 20 inclusion, in HEK293T cells: CCCCOc1nc2c(NCc3nccs3)nc(Cl)nc2[nH]1 , Emax reads 186

Bench note, FD (familial dysautomonia) IKBKAP minigene, exon 20 inclusion, in HEK293T cells: FC(F)(F)c1ccccc1Nc1ncnc2[nH]cnc12 , Emax reads 39

Bench note, FD (familial dysautomonia) IKBKAP minigene, exon 20 inclusion, in HEK293T cells: Fc1nc(NCc2ccco2)c2nc[nH]c2n1 , Emax reads 155

Bench note, FD (familial dysautomonia) IKBKAP minigene, exon 20 inclusion, in HEK293T cells: FCCn1cc(Cl)c2c(NCc3ccco3)nc(Cl)nc21 , Emax reads 71

Bench note, FD (familial dysautomonia) IKBKAP minigene, exon 20 inclusion, in HEK293T cells: FC(F)(F)c1nc(NCc2ccco2)c2nc[nH]c2n1 , Emax reads 19

Bench note, FD (familial dysautomonia) IKBKAP minigene, exon 20 inclusion, in HEK293T cells: c1coc(CNc2ncnc3cc[nH]c23)c1 , Emax reads 49

Bench note, FD (familial dysautomonia) IKBKAP minigene, exon 20 inclusion, in HEK293T cells: O=c1cc(CNc2nc(Cl)nc3[nH]cnc23)cc[nH]1 , Emax reads 42

Bench note, FD (familial dysautomonia) IKBKAP minigene, exon 20 inclusion, in HEK293T cells: CC(Nc1nc(Cl)nc2[nH]cnc12)c1nccs1 (stereo not shown) , Emax reads 2.4

Bench note, FD (familial dysautomonia) IKBKAP minigene, exon 20 inclusion, in HEK293T cells: Clc1nc(NCc2nccs2)c2nc(OCc3ccncc3)[nH]c2n1 , Emax reads 167

Bench note, FD (familial dysautomonia) IKBKAP minigene, exon 20 inclusion, in HEK293T cells: Cc1cn(CCO)c2nc(Cl)nc(NCc3ccncn3)c12 , Emax reads 155

Bench note, FD (familial dysautomonia) IKBKAP minigene, exon 20 inclusion, in HEK293T cells: Clc1nc(NCc2ccncc2)c2nc(OCC3CCCC3)[nH]c2n1 , Emax reads 177

Bench note, FD (familial dysautomonia) IKBKAP minigene, exon 20 inclusion, in HEK293T cells: Clc1nc(NCc2csnn2)c2cc[nH]c2n1 , Emax reads 37.7

Bench note, FD (familial dysautomonia) IKBKAP minigene, exon 20 inclusion, in HEK293T cells: Clc1nc(NCc2ccco2)c2nc(N3CCOCC3)[nH]c2n1 , Emax reads 52

Bench note, FD (familial dysautomonia) IKBKAP minigene, exon 20 inclusion, in HEK293T cells: Clc1nc(NCc2ccccn2)c2nc[nH]c2n1 , Emax reads 17

Bench note, FD (familial dysautomonia) IKBKAP minigene, exon 20 inclusion, in HEK293T cells: Clc1nc(NCc2nccs2)c2nc(OC[C@@H]3CCOC3)[nH]c2n1 , Emax reads 130

Bench note, FD (familial dysautomonia) IKBKAP minigene, exon 20 inclusion, in HEK293T cells: Cc1cc2c(NCc3ccncc3)nc(Cl)nc2[nH]1 , Emax reads 114
